Origin of values: patent US8604016B2

- TARGET SYSTEM: recombinant form of Glutaminase 1 (GAC) (Homo sapiens, UniProt O94925)
- TEST DETAILS: Recombinant Enzyme Assay - Time Dependence (60 minutes enzyme/compound preincubation)
- Format: biochemical
- EXPERIMENTAL SETUP: read-out: GAC Delta N2 IC50 60 min
For each of the molecules below, state its IC50.
Answer format: number, then unit.

MOLECULE	IC50
O=C(CN1CCOCC1)NCc1ccc(CC(=O)Nc2nnc(CCCCc3ccc(NC(=O)Cc4ccccc4)nn3)s2)cc1 [Compound 442]	7 nM
CC(C)(C)OC(=O)NCc1cccc(CC(=O)Nc2nnc(CCCCc3ccc(NC(=O)C(O)c4cccc(Cl)c4)nn3)s2)c1 (stereo not shown) [Compound 422]	7 nM
CCOC(=O)NCc1cc(C(C)C(=O)Nc2nnc(CCCCc3ccc(NC(=O)Cc4ccccc4)nn3)s2)ccc1F (stereo not shown) [Compound 574]	6 nM

Proceed to the following item.
Suppose we examine the molecule CC(C)(C)OC(=O)NCc1cccc(CC(=O)Nc2nnc(CCCCc3ccc(NC(=O)C(O)(CO)c4ccccc4)nn3)s2)c1 (stereo not shown) [Compound 507] ; what IC50 value has been reported?
13 nM

* * *

- Tested on: P493-6 (myc "on") cells
- TEST DETAILS: Cell Proliferation Assay (72 hrs, Cell Titer Glo or Viacount FACS)
- Type: cell-based
- EXPERIMENTAL SETUP: P493-6, 72 h, P493-6 cells, 72 h; read-out: Cell prolif P493 72h
EXPERIMENTAL ENDPOINT: IC50 (nM)
Numbers only, in nM.

Returns the measured IC50 for the input compound. Input: Nc1nnc(CCCCc2ccc(NC(=O)Cc3cccc(OC(F)(F)F)c3)nn2)s1 [Compound 657]
1500

* * *

Answer each item with its documented solubility at 18 h.
- TEST DETAILS: Solubility (18 hr vortex mixing at room temperature, filtration, HPLC)
- Type: physicochemical
- EXPERIMENTAL SETUP: 20 °C, aqueous with cosolvent or surfactant or cyclodextrin, thermodynamic from solid; 20% HPBCD/50 mM cit; room temperature

COMPOUND	solubility at 18 h
CCCC(=O)OCN(C(=O)Cc1ccccc1)c1nnc(CCCCc2ccc(NC(=O)Cc3ccccc3)nn2)s1 [Compound 402]	56 µg/mL

Batch lookup, solubility at 18 h per entry.
1. O=C(Cc1cccc(OC(F)(F)F)c1)Nc1ccc(CCCCc2nnc(NC(=O)C(O)c3cccc(Cl)c3)s2)nn1 (centres unmarked) [Compound 447]
2. O=C(Cc1cccc(OC(F)(F)F)c1)Nc1ccc(CCCCc2nnc(NC(=O)[C@@H](O)c3ccccc3)s2)nn1 [Compound 703]

2180 µg/mL
651 µg/mL

Lab note: each compound below needs its solubility at 18 h filled in.
1. O=C(Cc1cccc(OC(F)(F)F)c1)Nc1ccc(CCCCc2nnc(NC(=O)Cc3ccccc3)s2)nn1 [Compound 585]
2. O=C(Cc1ccccc1)Nc1ccc(CCCCc2nnc(NC(=O)Cc3ccccc3)s2)nn1 [Compound 295]

1. 327 µg/mL
2. 167 µg/mL

* * *

- TEST DETAILS: Solubility (18 hr vortex mixing at room temperature, filtration, HPLC)
- Format: physicochemical
- EXPERIMENTAL SETUP: 20 °C, aqueous with cosolvent or surfactant or cyclodextrin, thermodynamic from solid; 10% PS80/50 mM cit; room temperature
Threshold check on solubility at 18 h: at or above 400 µg/mL gives yes, strictly below gives no.

As a guide, the following entries are already answered.
MOLECULE	CLASS LABEL
O=C(Cc1cccc(OC(F)(F)F)c1)Nc1ccc(CCCCc2nnc(NC(=O)Cc3ccccc3)s2)nn1	no
O=C(Cc1ccccc1)Nc1ccc(CCCCc2nnc(NC(=O)Cc3ccccc3)s2)nn1	no
CCCC(=O)OCN(C(=O)Cc1ccccc1)c1nnc(CCCCc2ccc(NC(=O)Cc3ccccc3)nn2)s1	no
O=C(Cc1cccc(OC(F)(F)F)c1)Nc1ccc(CCCCc2nnc(NC(=O)[C@@H](O)c3ccccc3)s2)nn1	no

Pending molecule:
Reported solubility at 18 h reaches at least 400 µg/mL for O=C(Cc1cccc(OC(F)(F)F)c1)Nc1ccc(CCCCc2nnc(NC(=O)C(O)c3cccc(Cl)c3)s2)nn1 (centres unmarked) ?
yes

* * *

- TEST DETAILS: Solubility (18 hr vortex mixing at room temperature, filtration, HPLC)
- Format: physicochemical
- EXPERIMENTAL SETUP: 20 °C, saline or isotonic, thermodynamic from solid; 0.9% NaCl; room temperature
EXPERIMENTAL ENDPOINT: solubility at 18 h

// known answers, use as guide
COMPOUND	EXPERIMENTAL ENDPOINT	REPORTED VALUE
O=C(Cc1cccc(OC(F)(F)F)c1)Nc1ccc(CCCCc2nnc(NC(=O)[C@@H](O)c3ccccc3)s2)nn1	solubility at 18 h	< 4 µg/mL
O=C(Cc1cccc(OC(F)(F)F)c1)Nc1ccc(CCCCc2nnc(NC(=O)C(O)c3cccc(Cl)c3)s2)nn1 (centres unmarked)	solubility at 18 h	5 µg/mL

Give me solubility at 18 h for each of these compounds, listed below.
1. O=C(Cc1ccccc1)Nc1ccc(CCCCc2nnc(NC(=O)Cc3ccccc3)s2)nn1
2. CCCC(=O)OCN(C(=O)Cc1ccccc1)c1nnc(CCCCc2ccc(NC(=O)Cc3ccccc3)nn2)s1

["< 2 µg/mL", "< 4 µg/mL"]

So what's the measured solubility at 18 h for this one? O=C(Cc1cccc(OC(F)(F)F)c1)Nc1ccc(CCCCc2nnc(NC(=O)Cc3ccccc3)s2)nn1
< 2 µg/mL

* * *

- TEST DETAILS: Solubility (18 hr vortex mixing at room temperature, filtration, HPLC)
- Type: physicochemical
- EXPERIMENTAL SETUP: 20 °C, aqueous with cosolvent or surfactant or cyclodextrin, thermodynamic from solid; 20% SBECD/50 mM cit; room temperature
EXPERIMENTAL ENDPOINT: solubility at 18 h (µg/mL)
Give bare numbers, in µg/mL.

Past entries and their recorded results:
COMPOUND	solubility at 18 h / µg/mL
O=C(Cc1cccc(OC(F)(F)F)c1)Nc1ccc(CCCCc2nnc(NC(=O)Cc3ccccc3)s2)nn1 [Compound 585]	125
O=C(Cc1ccccc1)Nc1ccc(CCCCc2nnc(NC(=O)Cc3ccccc3)s2)nn1 [Compound 295]	90
O=C(Cc1cccc(OC(F)(F)F)c1)Nc1ccc(CCCCc2nnc(NC(=O)C(O)c3cccc(Cl)c3)s2)nn1 (centres unmarked) [Compound 447]	2720

For every record below, what is its solubility at 18 h?
1. CCCC(=O)OCN(C(=O)Cc1ccccc1)c1nnc(CCCCc2ccc(NC(=O)Cc3ccccc3)nn2)s1 [Compound 402]
2. O=C(Cc1cccc(OC(F)(F)F)c1)Nc1ccc(CCCCc2nnc(NC(=O)[C@@H](O)c3ccccc3)s2)nn1 [Compound 703]

19
476

* * *

- TEST DETAILS: Caco-2 Permeability Assay (bidirectional)
- Format: in vitro ADME
- EXPERIMENTAL SETUP: human, Caco-2; Direction B→A; 1 μM, 120 minutes, pH 7.4; unit not given (thresholds in 10^−6 cm/s)
EXPERIMENTAL ENDPOINT: Papp B→A at 120 min, 1 μM (×10⁻⁶ cm/s)
Give bare numbers, in ×10⁻⁶ cm/s.

Some solved entries appear below for comparison.
MOLECULE	Papp B→A at 120 min, 1 μM / ×10⁻⁶ cm/s
O=C(Cc1cccc(OC(F)(F)F)c1)Nc1ccc(CCCCc2nnc(NC(=O)Cc3ccccn3)s2)nn1	59.6
CC(C(=O)Nc1ccc(CCCCc2nnc(NC(=O)Cc3cccc(CNC(=O)OC(C)(C)C)c3)s2)nn1)c1ccccc1 (stereo not shown)	24.7
O=C(Cc1cccc(OC(F)(F)F)c1)Nc1ccc(CCCCc2nnc(NC(=O)[C@H](O)c3ccccc3)s2)nn1	51

Could you tell me Papp B→A at 120 min, 1 μM for each of these molecules? They are listed below.
1. O=C(Cc1cccc(OC(F)(F)F)c1)Nc1ccc(CCCCc2nnc(NC(=O)Cc3cccc(OC(F)(F)F)c3)s2)nn1
2. O=C(Cc1cccc(OC(F)(F)F)c1)Nc1ccc(CCCCc2nnc(NC(=O)C(O)c3cccc(Cl)c3)s2)nn1 (stereo not shown)
3. CC(C(=O)Nc1nnc(CCCCc2ccc(NC(=O)Cc3ccccc3)nn2)s1)c1ccccc1 (stereo not shown)
4. O=C(Cc1ccccc1)Nc1ccc(CCCCc2nnc(NC(=O)Cc3ccccn3)s2)nn1

[2.37, 27.2, 49.5, 45]

* * *

For each of the compounds below, state its pIC50.
- TARGET SYSTEM: recombinant form of Glutaminase 1 (GAC) (Homo sapiens)
- TEST DETAILS: Recombinant Enzyme Assay (GAC coupled to GDH, NADH absorbance, no preincubation)
- Assay type: biochemical
- EXPERIMENTAL SETUP: no preincubation; read-out: GAC Delta N2 IC50 no preinc
- Procedure: Enzymatic reaction was started with the addition of 50 μL of enzyme solution (50 mM Tris-HCl pH 8.0, 0.2 mM EDTA, 150 mM K2HPO4, 0.1 mg/ml BSA, 1 mM DTT, 10 ppm antifoam, 4 units/ml GDH, 4 mM adenosine diphosphate, and 4 nM GAC) and read in a Molecular Devices M5 plate reader at 20° C. The plate reader was configured to read absorbance (λ=340 nm) in kinetic mode for 15 minutes. […]
Numbers only, as −log10 of the molar value.

# annotated cases, reported pIC50 shown
COMPOUND	EXPERIMENTAL ENDPOINT	REPORTED VALUE
COc1ccc2c(c1)CC(C(=O)Nc1nnc(CCSCCc3nnc(NC(=O)C4Cc5cc(OC)ccc5O4)s3)s1)O2 (stereo not shown)	pIC50	5.62
CC1(C)OCC(C(=O)Nc2nnc(CCCCc3nnc(NC(=O)Cc4ccccc4)s3)s2)(c2ccccc2)O1 (stereo not shown)	pIC50	6.17
Cc1cccc(CC(=O)Nc2nnc(CCSCCc3nnc(NC(=O)Cc4cccc(C)c4)s3)s2)c1	pIC50	6.72
O=C(Nc1nnc(CCCCCc2nnc(NC(=O)C(CO)c3ccccc3)s2)s1)C(CO)c1ccccc1 (stereo not shown)	pIC50	5.92

Kindly review the next compound as well.
What pIC50 value was documented for this compound, CC(C)(C)OC(=O)N1CCC(CC(=O)Nc2nnc(CCSCCc3nnc(NC(=O)CC4CCN(C(=O)OC(C)(C)C)CC4)s3)s2)CC1 ?
6.02
